biological target: ERK5 (Homo sapiens, UniProt Q13164); construct: screened for activity against several kinases in Jurkat cells; endogenous in cells; host or cells: Jurkat cell lysate; experiment: Probe-based (AX9989 acyl phosphate ATP probe) kinase profiling in Jurkat lysate: ERK5; type: binding; settings: screening concentration 1 μM; read-out: ERK5 Inhibition % at indicated screening concentration
Sequence (Q13164 whole entry): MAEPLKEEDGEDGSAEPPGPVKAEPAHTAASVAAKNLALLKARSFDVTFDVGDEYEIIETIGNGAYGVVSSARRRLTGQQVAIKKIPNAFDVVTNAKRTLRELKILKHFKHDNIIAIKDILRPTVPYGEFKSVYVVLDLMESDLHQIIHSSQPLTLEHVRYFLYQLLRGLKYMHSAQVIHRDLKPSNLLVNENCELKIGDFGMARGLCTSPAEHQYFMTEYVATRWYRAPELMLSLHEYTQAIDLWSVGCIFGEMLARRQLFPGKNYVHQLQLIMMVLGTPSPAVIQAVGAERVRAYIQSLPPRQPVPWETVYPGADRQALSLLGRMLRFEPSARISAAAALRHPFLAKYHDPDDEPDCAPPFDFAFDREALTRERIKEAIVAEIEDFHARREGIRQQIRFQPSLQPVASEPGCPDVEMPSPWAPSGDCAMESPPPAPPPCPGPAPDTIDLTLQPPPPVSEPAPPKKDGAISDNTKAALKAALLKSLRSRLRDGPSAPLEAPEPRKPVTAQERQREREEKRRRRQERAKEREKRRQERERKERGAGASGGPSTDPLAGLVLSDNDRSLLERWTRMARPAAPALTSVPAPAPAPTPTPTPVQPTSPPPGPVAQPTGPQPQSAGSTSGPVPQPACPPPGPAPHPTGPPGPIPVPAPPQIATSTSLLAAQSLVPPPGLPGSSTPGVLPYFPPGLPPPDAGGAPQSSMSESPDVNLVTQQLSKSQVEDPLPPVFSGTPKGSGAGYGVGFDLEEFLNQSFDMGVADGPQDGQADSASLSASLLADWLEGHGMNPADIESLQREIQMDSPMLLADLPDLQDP

{"columns": ["Molecule", "inhibition at 1 µM"],
 "data": [
  ["CN1C(=O)c2ccccc2N(S(C)(=O)=O)c2cc(N[C@H]3CC[C@H](O)CC3)ncc21", "35 to 50%"],
  ["CCOc1cc(C(=O)N2CCC(N3CCN(C)CC3)CC2)ccc1Nc1cc2c(cn1)N(C)C(=O)c1ccccc1N2S(C)(=O)=O", "≤ 35%"],
  ["CN1CCN(C2CCN(C(=O)c3ccc(Nc4cc5c(cn4)N(C)C(=O)c4ccccc4N5C)c(OCCF)c3)CC2)CC1", "> 90%"],
  ["CCOc1cc(C(=O)N[C@H]2CC[C@@H](O)CC2)ccc1Nc1cc2c(cn1)N(C)C(=O)c1ccccc1N2C", "75 to 90%"],
  ["CCOc1cc(C(=O)N2CCN(C(C)=O)CC2)ccc1Nc1cc2c(cn1)N(C)C(=O)c1ccccc1N2C", "> 90%"],
  ["CCOc1cc(C(=O)N2CCCNCC2)ccc1Nc1cc2c(cn1)N(C)C(=O)c1scnc1N2C", "> 90%"],
  ["CCOc1cc(C(=O)N2CCC(NC(C)C)C2)ccc1Nc1cc2c(cn1)N(C)C(=O)c1ccccc1N2C (stereo not drawn)", "> 90%"],
  ["CCOc1cc(C(=O)N2CCN(CCN3CCOCC3)CC2)ccc1Nc1cc2c(cn1)N(C)C(=O)c1ccccc1N2C", "> 90%"],
  ["CCOc1cc(C(=O)N2CC[C@@H](N3CCN(C)CC3)C2)ccc1Nc1cc2c(cn1)N(C)C(=O)c1ccccc1N2C", "> 90%"],
  ["CN1CCN([C@@H]2CCN(C(=O)c3ccc(Nc4cc5c(cn4)N(C)C(=O)c4ccccc4N5C)c(F)c3)C2)CC1", "> 90%"],
  ["CC(=O)N1CCN(C(=O)c2ccc(Nc3cc4c(cn3)N(C)C(=O)c3ccccc3N4C)c(F)c2)CC1", "> 90%"],
  ["CCOc1cc(C(=O)N2CC[C@@H](NCCF)C2)ccc1Nc1cc2c(cn1)N(C)C(=O)c1ccccc1N2C", "> 90%"]
]}

====

Target: recombinant human ERK5 catalytic domain (Homo sapiens, UniProt Q13164)
Construct: Recombinant human ERK5 catalytic domain radiometric assays; purchased Reaction Biology, Corp (Malvern, Pa.), which ran the assay as a service
Test: Recombinant human ERK5 radiometric (HotSpot) assay
Assay type: biochemical
Conditions: 10 μM ATP, 20 μM myelin basic protein substrate; read-out: rhERK5 IC50
Procedure: In this example, potency of the compounds in recombinant human ERK5 was assayed. Recombinant human ERK5 catalytic domain radiometric assays were performed by Reaction Biology, Corp (Malvern, Pa.). The HotSpot radiometric assay is based on conventional filter-binding assays (Nature Biotechnology (2011) 29: 1039-1045). Compounds were tested at 20 μM down by ⅓ in a 10 point serial dilution series. […]

{"columns": ["Compound", "IC50"],
 "data": [
  ["CCOc1cc(C(=O)N2CCN(C(=O)CN)CC2)ccc1Nc1cc2c(cn1)N(C)C(=O)c1ccccc1N2C [Compound T30]", "< 20 nM"],
  ["CC(C)Oc1cc(C(=O)N2CCN(C3CCN(C)CC3)CC2)ccc1Nc1cc2c(cn1)N(C)C(=O)c1ccccc1N2C [Compound T49]", "50 to 200 nM"],
  ["CCOc1cc(C(=O)N2CCC(N3CCCN(C)CC3)CC2)ccc1Nc1cc2c(cn1)N(C)C(=O)c1ccccc1N2C [Compound T31]", "< 20 nM"],
  ["CCOc1cc(C(C)N2CC[C@@H](O)C2)ccc1Nc1cc2c(cn1)N(C)C(=O)c1ccccc1N2C (stereo partly drawn) [Compound T27]", "< 20 nM"],
  ["CC(C)Oc1cc(C(=O)N2CC[C@@H](NCCF)C2)ccc1Nc1cc2c(cn1)N(C)C(=O)c1ccccc1N2C [Compound T50]", "50 to 200 nM"],
  ["CCOc1cc(C(=O)N2CCC(N3CC[C@@H](O)C3)CC2)ccc1Nc1cc2c(cn1)N(C)C(=O)c1ccccc1N2C [Compound T10]", "20 to 50 nM"],
  ["CCOc1cc(C(=O)N2CCC(N3CC[C@H](O)C3)CC2)ccc1Nc1cc2c(cn1)N(C)C(=O)c1ccccc1N2C [Compound T11]", "20 to 50 nM"],
  ["CN1C(=O)c2ccccc2N(C)c2cc(Nc3ccc(C(=O)N4CCCNCC4)cc3OCCF)ncc21 [Compound T33]", "< 20 nM"],
  ["CN1C(=O)c2c(F)ccc(F)c2Oc2cc(N[C@H]3CC[C@H](O)CC3)ncc21 [Compound T97]", "> 200 nM"],
  ["CCOc1cc(C(=O)N2CC[C@@H](N(C)CCO)C2)ccc1Nc1cc2c(cn1)N(C)C(=O)c1ccccc1N2C [Compound T55]", "20 to 50 nM"],
  ["CCOc1cc(C(=O)N2CCN(CCC#N)CC2)ccc1Nc1cc2c(cn1)N(C)C(=O)c1ccccc1N2C [Compound T17]", "20 to 50 nM"],
  ["CN1C(=O)c2cccc(F)c2N(C)c2cc(N[C@H]3CC[C@H](O)CC3)ncc21 [Compound T118]", "> 200 nM"],
  ["CCOc1cc(C(=O)N2CCC[C@H](O)C2)ccc1Nc1cc2c(cn1)N(C)C(=O)c1scnc1N2C [Compound T13]", "50 to 200 nM"],
  ["Cc1cccc2c1Oc1cc(N[C@H]3CC[C@H](O)CC3)ncc1N(C)C2=O [Compound T96]", "> 200 nM"],
  ["CCOc1cc(C(C)N2CCCC2)ccc1Nc1cc2c(cn1)N(C)C(=O)c1ccccc1N2C (stereo not drawn) [Compound T26]", "< 20 nM"]
]}

====

target: TAO2 (Homo sapiens, UniProt Q9UL54); construct: screened for activity against several kinases in Jurkat cells; endogenous in cells; host or cells: Jurkat cell lysate; assay: Probe-based (AX9989) kinase profiling in Jurkat lysate: TAO2; type: binding; settings: screening concentration 0.1 μM; read-out: Kinase inhibition % at indicated screening concentration: TAO2
Sequence (Q9UL54 whole entry): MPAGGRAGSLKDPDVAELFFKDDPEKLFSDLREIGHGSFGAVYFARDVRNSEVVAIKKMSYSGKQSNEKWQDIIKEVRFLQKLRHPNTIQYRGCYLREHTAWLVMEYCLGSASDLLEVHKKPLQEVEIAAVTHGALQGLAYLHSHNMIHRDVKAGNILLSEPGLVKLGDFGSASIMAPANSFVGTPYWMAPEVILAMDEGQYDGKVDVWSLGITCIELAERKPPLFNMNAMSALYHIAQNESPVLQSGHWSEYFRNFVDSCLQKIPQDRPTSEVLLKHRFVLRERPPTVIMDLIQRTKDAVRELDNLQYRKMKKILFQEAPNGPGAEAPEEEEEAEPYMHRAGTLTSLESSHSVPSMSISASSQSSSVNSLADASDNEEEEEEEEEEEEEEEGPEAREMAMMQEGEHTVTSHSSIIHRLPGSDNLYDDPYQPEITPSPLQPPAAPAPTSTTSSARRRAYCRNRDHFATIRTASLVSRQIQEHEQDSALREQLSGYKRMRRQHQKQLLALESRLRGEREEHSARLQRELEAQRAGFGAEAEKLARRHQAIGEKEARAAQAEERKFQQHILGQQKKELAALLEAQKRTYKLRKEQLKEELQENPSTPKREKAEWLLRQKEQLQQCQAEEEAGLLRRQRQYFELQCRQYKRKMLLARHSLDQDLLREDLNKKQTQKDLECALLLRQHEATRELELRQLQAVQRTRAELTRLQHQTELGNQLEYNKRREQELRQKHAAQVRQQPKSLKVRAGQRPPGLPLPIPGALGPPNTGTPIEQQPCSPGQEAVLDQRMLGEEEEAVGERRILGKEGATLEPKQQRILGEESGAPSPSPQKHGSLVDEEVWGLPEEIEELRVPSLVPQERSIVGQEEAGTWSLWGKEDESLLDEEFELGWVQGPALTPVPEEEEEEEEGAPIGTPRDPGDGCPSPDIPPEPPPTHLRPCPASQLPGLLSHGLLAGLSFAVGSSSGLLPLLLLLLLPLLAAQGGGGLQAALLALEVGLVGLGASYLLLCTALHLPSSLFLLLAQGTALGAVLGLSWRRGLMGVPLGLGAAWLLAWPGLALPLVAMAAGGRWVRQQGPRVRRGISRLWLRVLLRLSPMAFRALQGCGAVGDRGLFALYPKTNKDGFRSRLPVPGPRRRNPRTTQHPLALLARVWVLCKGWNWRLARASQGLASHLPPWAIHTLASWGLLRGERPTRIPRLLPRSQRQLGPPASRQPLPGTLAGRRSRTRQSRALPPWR
Recorded Endpoint: inhibition at 0.1 µM

{"columns": ["Molecule Smiles", "Target Entity", "Recorded Endpoint", "Reading"],
 "data": [
  ["C=CCN1CCN(C(=O)c2ccc(Nc3cc4c(cn3)N(C)C(=O)c3ccccc3N4C)c(OCC)c2)CC1", "TAO2 (Homo sapiens, UniProt Q9UL54)", "inhibition at 0.1 µM", "≤ 35%"],
  ["CCOc1cc(C(=O)N2CC[C@@H](N(CC)CC)C2)ccc1Nc1cc2c(cn1)N(C)C(=O)c1occc1N2C", "TAO2 (Homo sapiens, UniProt Q9UL54)", "inhibition at 0.1 µM", "≤ 35%"],
  ["CCOc1cc(CO)ccc1Nc1cc2c(cn1)N(C)C(=O)c1ccccc1N2C", "TAO2 (Homo sapiens, UniProt Q9UL54)", "inhibition at 0.1 µM", "≤ 35%"],
  ["CCOc1cc(C(=O)N2CC[C@@H](NC)C2)ccc1Nc1cc2c(cn1)N(C)C(=O)c1ccccc1N2C", "TAO2 (Homo sapiens, UniProt Q9UL54)", "inhibition at 0.1 µM", "≤ 35%"]
]}

====

molecular target: SMARCA4 (Homo sapiens); assay: Bromodomain binding assay: SMARCA4
Sequence (P51532 1453-1564 limits assumed): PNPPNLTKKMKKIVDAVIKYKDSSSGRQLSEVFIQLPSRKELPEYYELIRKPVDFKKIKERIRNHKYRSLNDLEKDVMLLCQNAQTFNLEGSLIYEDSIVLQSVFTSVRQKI
pKd: −log10 of the molar value.

{"columns": ["Molecule Smiles", "pKd"],
 "data": [
  ["CCOc1cc(C(=O)N[C@H]2CC[C@H](O)CC2)ccc1Nc1cc2c(cn1)N(C)C(=O)c1ccccc1N2C", "< 4.70"],
  ["CCOc1cc(C(=O)N2CCC(N3CCCC3)CC2)ccc1Nc1cc2c(cn1)N(C)C(=O)c1ccccc1N2C", "< 4.70"]
]}

====

Molecular target: BRD3 (Homo sapiens, UniProt Q15059)
Construct: read out by qPCR of the phage DNA
Sequence (Q15059 whole entry): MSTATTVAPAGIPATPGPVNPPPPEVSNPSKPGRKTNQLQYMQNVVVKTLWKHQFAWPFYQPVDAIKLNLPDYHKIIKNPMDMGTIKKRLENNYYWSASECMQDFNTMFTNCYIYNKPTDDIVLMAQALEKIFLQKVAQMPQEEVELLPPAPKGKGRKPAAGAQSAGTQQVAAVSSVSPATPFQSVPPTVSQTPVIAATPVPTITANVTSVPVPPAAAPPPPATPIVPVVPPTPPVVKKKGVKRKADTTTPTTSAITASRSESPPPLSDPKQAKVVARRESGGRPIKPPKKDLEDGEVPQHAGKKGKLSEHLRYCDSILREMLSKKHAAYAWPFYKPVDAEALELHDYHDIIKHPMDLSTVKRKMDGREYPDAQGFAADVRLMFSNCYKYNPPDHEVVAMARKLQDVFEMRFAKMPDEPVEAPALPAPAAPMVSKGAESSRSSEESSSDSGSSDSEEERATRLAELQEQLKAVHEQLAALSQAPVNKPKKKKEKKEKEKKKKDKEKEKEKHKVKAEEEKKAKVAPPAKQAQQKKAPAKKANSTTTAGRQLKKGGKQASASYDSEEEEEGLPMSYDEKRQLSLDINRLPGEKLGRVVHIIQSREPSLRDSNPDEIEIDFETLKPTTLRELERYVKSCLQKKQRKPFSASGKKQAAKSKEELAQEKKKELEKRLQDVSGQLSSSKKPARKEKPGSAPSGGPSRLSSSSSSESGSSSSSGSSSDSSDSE
Experiment: Bromodomain binding assay: BRD3
Experimental: T7 phage strains displaying bromodomains were grown in parallel in 24-well blocks in an E. coli host derived from the BL21 strain. E. coli were grown to log-phase and infected with T7 phage from a frozen stock (multiplicity of infection=0.4) and incubated with shaking at 32° C. until lysis (90-150 minutes). The lysates were centrifuged (5,000×g) and filtered (0.2 μm) to remove cell debris. […] The bromodomain concentration in the eluates was measured by qPCR. […]
Recorded Endpoint: Kd (nM)

{"columns": ["Molecule", "Recorded Endpoint", "Reading"],
 "data": [
  ["CCOc1cc(C(=O)N[C@H]2CC[C@H](O)CC2)ccc1Nc1cc2c(cn1)N(C)C(=O)c1ccccc1N2C [Compound T62]", "Kd", 110],
  ["CCOc1cc(C(=O)N2CCC(N3CCCC3)CC2)ccc1Nc1cc2c(cn1)N(C)C(=O)c1ccccc1N2C [Compound 46]", "Kd", 33]
]}
